Consider the following substances; for each one, report its logFC.mWT.over.Luc.
- MEASURED ON: mouse ADAMTS7 (Mus musculus)
- Construct: Full-length mouse Adamts7 1-1857 (Uniprot Q68SA9, WT or E373Q catalytic mutant); expressed in transfected cells; host or cells: Human Coronary Artery Smooth Muscle Cells (HCA-SMC, Lonza), adenovirus 50 MOI
- Sequence (Q68SA9 221-1657): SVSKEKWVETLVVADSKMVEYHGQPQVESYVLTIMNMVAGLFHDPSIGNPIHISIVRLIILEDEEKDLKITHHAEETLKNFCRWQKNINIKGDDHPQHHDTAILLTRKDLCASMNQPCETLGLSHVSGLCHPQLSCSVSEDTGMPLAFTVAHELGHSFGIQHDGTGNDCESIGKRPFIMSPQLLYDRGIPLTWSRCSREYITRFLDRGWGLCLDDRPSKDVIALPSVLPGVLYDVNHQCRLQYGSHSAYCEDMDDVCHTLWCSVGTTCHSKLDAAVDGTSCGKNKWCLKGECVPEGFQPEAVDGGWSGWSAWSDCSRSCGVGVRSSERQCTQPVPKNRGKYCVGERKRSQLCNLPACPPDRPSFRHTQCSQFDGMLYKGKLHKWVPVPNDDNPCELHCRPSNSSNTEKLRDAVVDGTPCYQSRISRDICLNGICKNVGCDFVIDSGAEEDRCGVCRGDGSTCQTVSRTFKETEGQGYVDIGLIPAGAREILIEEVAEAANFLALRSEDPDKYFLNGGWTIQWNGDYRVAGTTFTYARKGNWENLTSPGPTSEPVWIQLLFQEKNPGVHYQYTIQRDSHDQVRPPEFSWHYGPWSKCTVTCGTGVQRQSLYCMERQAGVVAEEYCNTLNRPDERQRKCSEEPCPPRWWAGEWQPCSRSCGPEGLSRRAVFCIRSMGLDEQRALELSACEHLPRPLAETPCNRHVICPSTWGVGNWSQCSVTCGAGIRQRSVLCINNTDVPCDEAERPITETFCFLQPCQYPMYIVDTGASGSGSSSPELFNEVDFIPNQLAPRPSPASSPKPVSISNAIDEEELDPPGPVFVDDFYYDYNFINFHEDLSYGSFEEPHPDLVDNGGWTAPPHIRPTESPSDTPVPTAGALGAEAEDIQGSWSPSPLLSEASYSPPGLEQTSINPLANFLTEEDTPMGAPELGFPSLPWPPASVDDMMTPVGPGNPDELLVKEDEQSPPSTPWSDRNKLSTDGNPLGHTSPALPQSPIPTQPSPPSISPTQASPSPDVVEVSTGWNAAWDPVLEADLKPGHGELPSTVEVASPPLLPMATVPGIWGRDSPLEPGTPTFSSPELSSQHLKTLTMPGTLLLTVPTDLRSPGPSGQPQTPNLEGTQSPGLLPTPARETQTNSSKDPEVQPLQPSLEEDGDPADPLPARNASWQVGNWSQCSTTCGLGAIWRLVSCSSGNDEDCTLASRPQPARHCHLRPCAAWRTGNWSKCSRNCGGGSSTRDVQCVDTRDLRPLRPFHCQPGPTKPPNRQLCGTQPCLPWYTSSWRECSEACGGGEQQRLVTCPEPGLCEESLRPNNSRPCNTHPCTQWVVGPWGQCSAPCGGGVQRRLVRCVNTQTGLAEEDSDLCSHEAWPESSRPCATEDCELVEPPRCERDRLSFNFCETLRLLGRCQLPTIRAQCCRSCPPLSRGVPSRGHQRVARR
- PROTOCOL TEXT: TMT10 TAILS N-terminomics, SMC2 experiment (process replicates, trypsin/AspN digest)
- Assay type: cell-based
- CONDITION SUMMARY: SMC2_TAILS HC; log fold change, mWT over Luc
- From the text: ADAMTS7 Expression, Cell Culture and Preparation of the Secreted Proteins—Full-length mouse Adamts7 1-1857 (Uniprot Q68SA9, WT or E373Q catalytic mutant) with a carboxyl terminal 3xFLAG tag was used to generate custom adenoviruses as previously described. Adeno-CMV-Luciferase (Ad-Luc) from Vector Biolabs was used as a negative control. […] Expression of the Flag tagged ADAMTS7 was confirmed from the media using western blot and detected using the anti-Flag M2-HRP antibody (Sigma, A8592). […]

The cases that follow already have their logFC.mWT.over.Luc on record.
## Task For the substance shown here, FBLN2_260 (LGPPAPVQAKAR; listed as Homo sapiens) , give the reported logFC.mWT.over.Luc.
## Result 1.98

## Task Please give the measured logFC.mWT.over.Luc for this substance: HEG1_51 (GLELQLER; listed as Homo sapiens)
## Result 0.90

Quick one: give me logFC.mWT.over.Luc for each item below, same order please.
1. COL1A2_80 (QYDGKGVGLGPGPMGLMGPR; listed as Homo sapiens)
2. APOA1_86 (EQLGPVTQEFW; listed as Homo sapiens)

## Result
[0.82, 1.80]

Respectfully, I request logFC.mWT.over.Luc for each entry included below.
1. COL1A2_630 (VGTAGPSGPSGLPGER; listed as Homo sapiens)
2. HEG1_224 (FQTKSGTAS; listed as Homo sapiens)
3. FLNC_2649 (FVGQKNSFTV; listed as Homo sapiens)
4. IGFBP7_101 (AAGGPGVSGVCVCKSR; listed as Homo sapiens)
5. CCDC80_66 (LEEPNLQPLQR; listed as Homo sapiens)
6. LOX_60 (LGSQYQPQR; listed as Homo sapiens)
7. ECM1_38 (FQEVGYAAPPSPPLSR; listed as Homo sapiens)

## Result
[2.03, 3.54, 3.91, 2.53, 2.08, 1.25, 1.54]

Dear reader, for each entry below, please note its logFC.mWT.over.Luc.
1. FN1_36 (MVQPQSPVAVSQSKPGCYDNGKHYQINQQWER; listed as Homo sapiens)
2. COL1A2_305 (LTGAKGAAGLPGVAGAPGLPGPR; listed as Homo sapiens)

## Result
1. 3.59
2. 1.60
